Target: human CCR8 carried on proteoliposomes (human, UniProt P51685 1-355)
Sequence (P51685 whole entry): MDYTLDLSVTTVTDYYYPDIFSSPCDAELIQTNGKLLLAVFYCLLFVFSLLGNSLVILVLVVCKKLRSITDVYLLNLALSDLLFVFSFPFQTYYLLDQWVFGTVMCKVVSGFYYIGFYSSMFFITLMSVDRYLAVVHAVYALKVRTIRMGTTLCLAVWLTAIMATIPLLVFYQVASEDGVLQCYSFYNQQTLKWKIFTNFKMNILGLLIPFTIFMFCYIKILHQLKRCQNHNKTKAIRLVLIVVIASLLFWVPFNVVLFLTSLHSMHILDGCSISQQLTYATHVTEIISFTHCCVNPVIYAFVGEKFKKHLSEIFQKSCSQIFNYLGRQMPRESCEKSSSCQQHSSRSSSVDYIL
Test: SPR
readoutKind: Kd (nM)
Value expressed in nM; do not type the unit.

Q. For biotinylated human recombinant CCL17 (ligand, UniProt Q92583 24-94, looked up, biotin (biotinylated; site not stated)) ARGTNVGRECCLEYFKGAIPLRKLKTWYQTSEDCSRDAIVFVTVQGRAICSDPNNKRVKNAVKYLQSLERS , what is its reported Kd?
A. 1.1
